This section presents compounds with their documented selectivity ratio values.
# ASSAY_INFO: Effect upon the number of peripheral leukocytes (WBC 4000)
# Type: in vivo
# CONDITION_INFO: mouse, Toxicity against bone marrow, WBC 4000 = dose giving 4000 leukocytes/mm3, Sarcoma 180 bearing mice, read-out: WBC 4000/ ED50
API doc: respond with a numeric literal and nothing else, no unit.

Worked cases, selectivity ratio given:
COC12C(COC(N)=O)C3=C(C(=O)C(C)=C(NCCSSCCNC4=C(C)C(=O)C5=C(C4=O)C(COC(N)=O)C4(OC)C6C(CN54)N6C)C3=O)N1CC1C2N1C (stereo not shown) | 1.34
COC12C(COC(N)=O)C3=C(C(=O)C(C)=C(NCCSSCCN)C3=O)N1CC1NC12 (stereo not shown) | 1.25
CCSSCCNC1=C(C)C(=O)C2=C(C1=O)C(COC(N)=O)C1(OC)C3NC3CN21 (stereo not shown) | 3.76
CC1=C(NCCSSCCNC2=C(C)C(=O)C3=C(C2=O)C(COC(N)=O)C2(O)C4C(CN32)N4C)C(=O)C2=C(C1=O)N1CC3C(N3C)C1(O)C2COC(N)=O (stereo not shown) | 2.29
COC12C(COC(N)=O)C3=C(C(=O)C(C)=C(NCCSSCCNC4=C(C)C(=O)C5=C(C4=O)C(COC(N)=O)C4(OC)C6NC6CN54)C3=O)N1CC1NC12 (stereo not shown) | 2.63
COC12C(COC(N)=O)C3=C(C(=O)C(C)=C(NCCSSCCO)C3=O)N1CC1NC12 (stereo not shown) | 2.13

Lab book: selectivity ratio of CC1=C(NCCSSCCN)C(=O)C2=C(C1=O)N1CC3C(N3C)C1(O)C2COC(N)=O (stereo not shown) noted as 1.87
